tested on: SEM cells; experiment: cell viability relative to DMSO control; higher = less cytotoxic; conditions: HPLM + 10% dialyzed FBS; 48 h; 0.0211 µM
endpoint name: cell viability

1. CC(C)(Sc1ccc(CCN(CCCCC2CCCCC2)C(=O)NC2CCCCC2)cc1)C(=O)O	102%
2. COC(=O)Nc1nc2ccc([S+]([O-])c3ccccc3)cc2[nH]1 (configuration not stated)	100%
3. CCOC(=O)[C@@H](N)CCC(=O)N[C@@H](CSCc1ccccc1)C(=O)N[C@@H](C(=O)OCC)c1ccccc1	103%
4. NNc1nncc2ccccc12	103%
5. N#CC[C@H](C1CCCC1)n1cc(-c2ncnc3[nH]ccc23)cn1	103%
6. C1CN\2C[C@@H](\N=C2S1)C3=CC=CC=C3	88.6%
7. COC(=O)[C@H](c1ccccc1Cl)N1CCc2sccc2C1	110%

====

test system: P12-Ichikawa; experiment: cell viability relative to DMSO control; higher = less cytotoxic; details: RPMI 5 mM glucose + 10% dialyzed FBS; 48 h; 46.1 µM
Property: cell viability; scope: individual compounds
endpoint name: cell viability (%)

1) OC[C@H]1OC(OC2=CC3=C(C(=C2)O)C(=O)\C(=C/O3)C4=CC=C(O)C=C4)[C@H](O)[C@@H](O)[C@@H]1O (stereo partly specified)	80
2) CN(C)[C@@H](CCOc1cccc2ccccc12)c1ccccc1	67.1
3) Clc1ccccc1C(c1ccccc1)(c1ccccc1)n1ccnc1	58.5
4) C=CC(=O)Nc1ccc2ncnc(Nc3ccc(OCc4cccc(F)c4)c(Cl)c3)c2c1	16.4
5) CN(C)CCc1c[nH]c2ccc(C[S+](=O)([O-])N3CCCC3)cc12	84.2
6) Cc1ccc(/C=N/NC(=O)c2ccccc2Oc2ccccc2)o1	78.3

====

Property: cell viability; scope: individual molecules
tested on: SEM cells; experiment: cell viability relative to DMSO control; higher = less cytotoxic; settings: RPMI 5 mM glucose + 10% FBS; 48 h; 0.00234 µM
endpoint name: cell viability (%)

1. CC(C)c1c(C(=O)Nc2ccccc2)c(-c2ccccc2)c(-c2ccc(F)cc2)n1CC[C@@H](O)C[C@@H](O)CC(=O)[O-]	92.3
2. Nc1ccn([C@H]2CS[C@@H](CO)O2)c(=O)n1	116
3. C1CN\2C[C@@H](\N=C2S1)C3=CC=CC=C3	86.7
4. CC(C)(C)OC(=O)Nc1ccc(-c2cc(C(=O)NCCCCCCC(=O)NO)no2)cc1	88.1

====

tested on: SEM cells; assay: cell viability relative to DMSO control; higher = less cytotoxic; settings: HPLM + 10% dialyzed FBS; 48 h; 0.569 µM
endpoint name: cell viability (%)

1) CC(C)(C)OC(=O)Nc1ccc(-c2cc(C(=O)NCCCCCCC(=O)NO)no2)cc1	102
2) N#C/C(=C1/Nc2ccccc2S1)c1ccnc(OCc2ccc(CN3CCOCC3)cc2)n1	106
3) Cc1ccc([S+](=O)([O-])Nc2cc(Cl)ccc2C(=O)Nc2nc(-c3ccccc3)cs2)cc1	24.8

====

test system: P12-Ichikawa; assay: cell viability relative to DMSO control; higher = less cytotoxic; conditions: RPMI 5 mM glucose + 10% FBS; 48 h; 5.12 µM
Property: cell viability; scope: individual compounds
endpoint name: cell viability (%)

1. N#CC[C@H](C1CCCC1)n1cc(-c2ncnc3[nH]ccc23)cn1	75.4
2. N#Cc1ccnc(N2C(=O)CC[C@H]2C(=O)N(c2cncc(F)c2)[C@H](C(=O)NC2CC(F)(F)C2)c2ccccc2Cl)c1	25.4
3. Nc1nc(N)c(N=O)c(OCC2CCCCC2)n1	53.8
4. CC(C)(O)C(=O)Nc1ccc([N+](=O)[O-])c(C(F)(F)F)c1	87

====

Property: AUC of viability dose-response curve; scope: individual compounds
system: NOMO1; experiment: AUC of viability dose-response curve (% viability x log10 dose units); higher = less sensitive; conditions: RPMI 5 mM glucose + 10% dialyzed FBS; 48 h
endpoint name: AUC of viability dose-response curve

1. Oc1c(Cl)cc(Cl)c2cccnc12	462
2. Oc1ccc([C@@H]2Oc3ccc(O)cc3[C@@H]3CCC[C@@H]32)cc1	406
3. CC[C@H]1CN2CCc3cc(OC)c(OC)cc3[C@@H]2C[C@@H]1C[C@H]1NCCc2cc(OC)c(OC)cc21	305
4. COc1cc2ncnc(Nc3cccc(Cl)c3)c2cc1OC	343

====

test system: SEM cells; experiment: AUC of viability dose-response curve (% viability x log10 dose units); higher = less sensitive; conditions: RPMI 5 mM glucose + 10% FBS; 48 h
AUC of viability dose-response curve vs 400: less than gives TRUE; not less than gives FALSE.

1. Oc1c(Cl)cc(Cl)c2cccnc12	FALSE
2. Cc1ncc(-c2ccnc(Nc3ccc([S+](C)(=O)[O-])cc3)n2)n1C(C)C	TRUE
3. COc1cc2ncn(-c3cc(OCc4ccccc4C(F)(F)F)c(C(N)=O)s3)c2cc1OC	TRUE
4. COc1cc2ncnc(Nc3cccc(Cl)c3)c2cc1OC	TRUE
5. OCCN1C[C@H](O)[C@@H](O)[C@H](O)[C@H]1CO	FALSE
6. Cc1cccc2c1CC[C@H](CN1CCC(c3c(Cl)cccc3Cl)CC1)C[C@@H]2O	FALSE
7. CSCC[C@H](NC(=O)[C@H](Cc1c[nH]c2ccccc12)NC(=O)CCNC(=O)OC(C)(C)C)C(=O)N[C@@H](CC(=O)O)C(=O)N[C@@H](Cc1ccccc1)C(N)=O	FALSE
8. COC(=O)C/1=C(C)/N/C(=C(\C1C2=CC(=CC=C2)[N+]([O-])=O)C(=O)OCCCN3CCC(CC3)(C4=CC=CC=C4)C5=CC=CC=C5)C (stereo not given)	FALSE
9. C[N]1N=CC=C1C/2=C(\C)N(C(=O)C(=C2)/C(=O)NCC3=NC=C(C=C3)[S+](C)([O-])=O)C4=CC=CC(=C4)C(F)(F)F	FALSE
10. CN(C)CCOc1ccc(/C(=C(/CCCl)c2ccccc2)c2ccccc2)cc1	TRUE
11. OCCN(CCO)c1nc(N2CCCCC2)c2nc(N(CCO)CCO)nc(N3CCCCC3)c2n1	FALSE
12. O=C(NCC1CCOCC1)c1cnc(Nc2ccc(Cl)cc2Cl)nc1C(F)(F)F	FALSE
13. CN(C)CCc1c[nH]c2ccc(C[S+](=O)([O-])N3CCCC3)cc12	FALSE
14. NCCc1ccc(O)c(O)c1	FALSE
15. COc1cc(Cl)cn2c(-c3cccc(NC4CNC4)n3)cnc12	FALSE
16. CC(C)(C)OC(=O)Nc1ccc(-c2cc(C(=O)NCCCCCCC(=O)NO)no2)cc1	TRUE
17. CN1CCN(CCCN2c3ccccc3Sc3ccc(Cl)cc32)CC1.O=C(O)/C=C\C(=O)O.O=C(O)/C=C\C(=O)O	FALSE
18. Nc1ccn([C@H]2CS[C@@H](CO)O2)c(=O)n1	FALSE
19. C[C@H](NCc1ccc(OCc2cccc(F)c2)cc1)C(N)=O	TRUE
